tested on: MDA-MB-231; test: kynurenine production, fold change vs DMSO IFNg/TNF control; higher = more kynurenine produced (less inhibition); conditions: pre-treatment time: 18 h then 24 h IFNg/TNF
Structures can show the parent of a compound that is named as a salt.
parameter: kynurenine production
Could you respond with only the numeric value?

Given the compound C[C@@H]1CC[C@@]2(OC1)O[C@H]1C[C@H]3[C@@H]4CC=C5C[C@@H](O[C@@H]6O[C@H](CO)[C@@H](O[C@@H]7O[C@@H](C)[C@H](O[C@@H]8O[C@@H](C)[C@H](O)[C@@H](O)[C@H]8O)[C@@H](O)[C@H]7O)[C@H](O)[C@H]6O[C@@H]6O[C@@H](C)[C@H](O)[C@@H](O)[C@H]6O)CC[C@]5(C)[C@H]4CC[C@]3(C)[C@H]1[C@@H]2C [Formosanin C] (compound dose: 10 uM) , what is its reported kynurenine production?
0.125

Given the compound C/C=C(/C)C(=O)O[C@H]1C(C)=C[C@]23C(=O)[C@@H](C=C(C)[C@@H](O)[C@]12O)[C@H]1[C@@H](C[C@H]3C)C1(C)C [20-Deoxyingenol 3-angelate] (compound dose: 10 uM) , what is its reported kynurenine production?
0.858

Given the compound CN1[C@@H]2C[C@@H](OC(=O)[C@H](CO)c3ccccc3)C[C@H]1[C@@H]1O[C@@H]12 [Scopolamine hydrobromide] (compound dose: 10 uM) , what is its reported kynurenine production?
0.811

Given the compound CC(C)=CCC[C@@](C)(O)[C@H]1CC[C@]2(C)[C@@H]1[C@H](O)C[C@@H]1[C@@]3(C)CC[C@H](O)C(C)(C)[C@@H]3[C@@H](O[C@@H]3O[C@H](CO)[C@@H](O)[C@H](O)[C@H]3O)C[C@]12C [(20R)-Ginsenoside Rh1] (compound dose: 10 uM) , what is its reported kynurenine production?
0.887

Given the compound C=C(C)C(=O)O[C@H]1[C@@H]2[C@H](C)C(=O)O[C@@H]2C[C@@H](C)[C@@H]2C=CC(=O)[C@]21C [Arnicolide D] (compound dose: 10 uM) , what is its reported kynurenine production?
0.153

Given the compound C=C1[C@H](OC(C)=O)[C@@H](OC(=O)c2ccccc2)[C@@H](OC(C)=O)C(C)(C)[C@H]2O[C@](O)([C@@H](C)C2=O)[C@@]2(OC(C)=O)C[C@H](C)[C@H](OC(C)=O)[C@@H]2[C@H]1OC(C)=O [Kansuinine A] (compound dose: 10 uM) , what is its reported kynurenine production?
0.709

Given the compound O=C(/C=C/c1ccccc1)OC[C@H]1O[C@@H](O[C@@H]2OC=C[C@H]3[C@H](O)[C@@H]4O[C@]4(CO)[C@@H]23)[C@H](O)[C@@H](O)[C@@H]1O [Picroside I] (compound dose: 10 uM) , what is its reported kynurenine production?
0.923

Given the compound C=C1CC[C@H]2[C@@H](/C=C(\C)C(=O)[C@@]3(O)C[C@H](C)[C@H](O)[C@@H]3[C@@H]1O)C2(C)C [Lathyrol] (compound dose: 10 uM) , what is its reported kynurenine production?
0.849

Given the compound CC(C)=CCC[C@H](C(=O)O)[C@H]1CC[C@]2(C)C3=C(CC[C@@]12C)[C@@]1(C)CCC(=O)C(C)(C)[C@H]1CC3 [β-Elemonic acid] (compound dose: 10 uM) , what is its reported kynurenine production?
1.16

Given the compound CC(=O)O[C@H]1C[C@H](O[C@H]2[C@@H](O)C[C@H](O[C@H]3[C@@H](O)C[C@H](O[C@H]4CC[C@@]5(C)[C@H](CC[C@@H]6[C@@H]5C[C@@H](O)[C@]5(C)[C@@H](C7=CC(=O)OC7)CC[C@]65O)C4)O[C@@H]3C)O[C@@H]2C)O[C@H](C)[C@H]1O[C@@H]1O[C@H](CO)[C@@H](O)[C@H](O)[C@H]1O [Lanatoside C] (compound dose: 10 uM) , what is its reported kynurenine production?
0.149
